- Test system: αβ-tubulin
- method: Tubulin polymerization tracked turbidimetrically at 350 nm
- Assay type: biochemical
- reported conditions: turbidimetric; versus compound B
recorded endpoint: Fold lower IC50 for inhibiting tubulin assembly than that of compound B (fold)

Here are 2 compounds together with their reported answers.
• C=CCOC(=O)c1[nH]c2c(c1C)C(=O)C[C@@H](c1ccco1)C2 = 4.0
• C/C=C/COC(=O)c1[nH]c2c(c1C)C(=O)C[C@@H](c1ccco1)C2 = 3.0

1: Cc1c(C(=O)OC2CCCCC2)[nH]c2c1C(=O)C[C@@H](c1ccco1)C2
2: CCSCCOC(=O)c1[nH]c2c(c1C)C(=O)C[C@@H](c1ccco1)C2
Query: Which of these two has the smaller recorded Fold lower IC50 for inhibiting tubulin assembly than that of compound B: 1 or 2 ? Please respond with the label that marks your chosen entry.
Response: 1
(1: 2.3 fold, 2: 4.2 fold)
